Biological target: LTC4S (Homo sapiens (Human), UniProt Q16873)
Assay: Human whole blood HTRF assay (LTC4 release after calcium ionophore A23187)
Assay type: cell-based
Conditions: human whole blood diluted 1:3, 4 h incubation, calcium ionophore A23187 stimulation, LTC4 by HTRF; read-out: human whole blood HTRF IC50
Parameter IC50: see the listing below.
Give the value, in units of nM, as a plain number.

Worked cases, IC50 given:
# Compound, Target or system, Output unit, IC50
measured = [
    ("Nc1nc(O[C@H](C2COC2)C(F)(F)F)cc(N2CCC3(CCCC(=O)N3c3ccc(F)c(F)c3)CC2)n1 (single isomer, unassigned) [Example 89b]", "LTC4S (Homo sapiens (Human), UniProt Q16873)", "nM", 5),
    ("O=C1CCCC2(CCN(c3cc(-n4cccn4)nc(N4CCOCC4)n3)CC2)N1c1ccc(F)c(F)c1", "LTC4S (Homo sapiens (Human), UniProt Q16873)", "nM", 29),
]

// sample O=C1CC(F)CC2(CCN(c3cc(OC4CCOCC4)ncn3)CC2)N1c1ccc(F)c(F)c1 (racemic) , its IC50 was 8

// sample O=C1CCCC2(CCN(c3ccn4nc(C(F)(F)F)cc4n3)CC2)N1c1ccc(Cl)c(F)c1 , its IC50 was 10

// sample [2H]C([2H])(Oc1cc(N2CCC3(CCCC(=O)N3c3ccc(F)c(F)c3)CC2)nc(N)n1)C(F)(F)F , its IC50 was 5
